Source: paper PMC5540273

System: MKK7
Details: concentration: 1 μM, replicates: in singlicate; n = 1
Below, each entry is listed with its recorded %Inh.

compound: O=C1NC(=O)C(c2ccccc2)=C1Nc1cccc(O)c1
experimental_system: MKK7
unit_label: %
%Inh: 0
//
compound: COc1cc2nccc(Nc3ccc(OCc4ccc(NC(C)=O)cc4)cc3)c2cc1OC.Cl
experimental_system: MKK7
unit_label: %
%Inh: 27
//
compound: Nc1nc(-c2ccccc2F)c(-c2ccnc3ccccc23)s1
experimental_system: MKK7
unit_label: %
%Inh: 15
//
compound: Cc1nnc(-c2ccc(C)c(-c3ccc(C(=O)O)cc3)c2)o1
experimental_system: MKK7
unit_label: %
%Inh: 13
//
compound: COc1ccc(CNC(=O)NC2CCN(c3ccnc(Nc4ccc(F)cc4)n3)C2)cc1 (centres unmarked)
experimental_system: MKK7
unit_label: %
%Inh: 10
//
compound: O=C(Nc1n[nH]c2nc(-c3ccccc3)c(Cl)cc12)C1CC1
experimental_system: MKK7
unit_label: %
%Inh: 0
//
compound: COC(=O)c1c(-c2ccccc2)c2cc(C)ccc2c(=O)n1Cc1ccccc1
experimental_system: MKK7
unit_label: %
%Inh: 0
//
compound: Cl.NS(=O)(=O)c1cccc(Nc2cc(-c3ccc(F)cc3)n[nH]2)c1
experimental_system: MKK7
unit_label: %
%Inh: 19
//
compound: COc1cc(Nc2nccc(N3CCC(NC(=O)C4COc5ccccc5O4)C3)n2)cc(OC)c1OC (centres unmarked)
experimental_system: MKK7
unit_label: %
%Inh: 0
//
compound: CCC(=O)c1c(-c2ccccc2)c2cc(Cl)ccc2c(=O)n1Cc1cc(S(C)(=O)=O)n(CCC(C)(C)O)n1
experimental_system: MKK7
unit_label: %
%Inh: 0
//
compound: CCC(=O)c1c(-c2ccccc2)c2cc(Cl)ccc2c(=O)n1Cc1cc(S(C)(=O)=O)n(CC(F)F)n1
experimental_system: MKK7
unit_label: %
%Inh: 0
//
compound: CCC(=O)c1c(-c2ccccc2)c2cc(Cl)ccc2c(=O)n1Cc1ccc(C(=O)O)cc1
experimental_system: MKK7
unit_label: %
%Inh: 0
//
compound: COc1cc2nccc(Nc3cccc(Oc4ccccc4)c3)c2cc1OC.Cl
experimental_system: MKK7
unit_label: %
%Inh: 0
//
compound: Cc1nnc(-c2ccc3ncn(-c4ccc(S(C)=O)cc4)c3c2)o1 (centres unmarked)
experimental_system: MKK7
unit_label: %
%Inh: 12
//
compound: COc1cc(OC)cc(-c2cc3cnc(N)nc3nc2NC(=O)NC(C)(C)C)c1
experimental_system: MKK7
unit_label: %
%Inh: 0
//
compound: COc1cccc(C2=C(Nc3cccc(C(=O)O)c3)C(=O)NC2=O)c1
experimental_system: MKK7
unit_label: %
%Inh: 15
//
compound: COc1cc2ncn(-c3cc(OCCCc4ccccc4)c(C(N)=O)s3)c2cc1OC
experimental_system: MKK7
unit_label: %
%Inh: 0
//
compound: COc1ccc(-c2cc3c(C)nc(N)nc3n([C@H]3CC[C@H](OCCO)CC3)c2=O)cn1
experimental_system: MKK7
unit_label: %
%Inh: 0
//
compound: COC(=O)c1c(-c2ccccc2)c2cc(Br)ccc2c(=O)n1Cc1ccc(NC(=O)CCC(=O)O)cc1
experimental_system: MKK7
unit_label: %
%Inh: 0
//
compound: Nc1ncnc2c1ncn2-c1ccc(Cl)cc1
experimental_system: MKK7
unit_label: %
%Inh: 0
//
compound: CCS(=O)c1ccc(-c2coc3ccc(-c4nnc(C)o4)cc23)cc1 (centres unmarked)
experimental_system: MKK7
unit_label: %
%Inh: 23
//
compound: COc1cc(Nc2ccnc3ccc(C(F)(F)F)cc23)cc(OC)c1OC
experimental_system: MKK7
unit_label: %
%Inh: 0
//
compound: OCCCNc1nccc(-c2c(-c3cccc(C(F)(F)F)c3)nn3cc(C(F)(F)F)ccc23)n1
experimental_system: MKK7
unit_label: %
%Inh: 15
//
compound: Cn1c(=O)c(F)c(Nc2ccc(I)cc2F)c2c(=O)n(OC[C@H](O)CO)cnc21
experimental_system: MKK7
unit_label: %
%Inh: 0
//
compound: Cc1ccc(-c2ccc3c(ccc4sc5c(c43)NC[C@@H](C)N=C5N(C)C)n2)cn1
experimental_system: MKK7
unit_label: %
%Inh: 0
//
compound: CN1C(=O)C(Nc2ccccc2)=C(c2ccccc2)C1=O
experimental_system: MKK7
unit_label: %
%Inh: 20
//
compound: Cc1c(Cn2c(C)nn3c(=O)cc(N4CCO[C@H](C)C4)nc23)cccc1C(F)(F)F
experimental_system: MKK7
unit_label: %
%Inh: 0
//
compound: CCc1ccc(-c2ccc3c(c2)-c2nn(C)cc2S(=O)(=O)N3C)cc1
experimental_system: MKK7
unit_label: %
%Inh: 16
//
compound: CCC(=O)c1c(-c2ccccc2)c2cc(Cl)ccc2c(=O)n1Cc1cc(C(=O)NC2CC2)n(C)n1
experimental_system: MKK7
unit_label: %
%Inh: 25
//
compound: CCn1c(-c2ccoc2)nc2cnccc21
experimental_system: MKK7
unit_label: %
%Inh: 33
//
compound: CN1C(=O)C(Nc2cc(Cl)c(O)c(Cl)c2)=C(c2ccc(Cl)cc2)C1=O
experimental_system: MKK7
unit_label: %
%Inh: 0
//
compound: COC(=O)c1c(-c2ccccc2)c2cc(Br)ccc2c(=O)n1Cc1ccc(S(C)(=O)=O)cc1
experimental_system: MKK7
unit_label: %
%Inh: 19
//
compound: O=C(Nc1n[nH]c2nc(-c3ccccc3)c(Br)cc12)C1CC1
experimental_system: MKK7
unit_label: %
%Inh: 0
//
compound: CC(C)(C)c1ccc(C(=O)Nc2cn3cc(-c4ccccc4)ccc3n2)cc1
experimental_system: MKK7
unit_label: %
%Inh: 0
//
compound: CCC(=O)c1c(-c2ccccc2)c2cc(Cl)ccc2c(=O)n1Cc1cc(S(C)(=O)=O)n(CC(N)=O)n1
experimental_system: MKK7
unit_label: %
%Inh: 0
//
compound: O=C(Nc1n[nH]c2cc(-c3ccccc3F)ccc12)C1CC1
experimental_system: MKK7
unit_label: %
%Inh: 10
//
compound: Cc1nn2c(=O)cc(N3CCOCC3)nc2n1Cc1cccc(Cl)c1Cl
experimental_system: MKK7
unit_label: %
%Inh: 0
//
compound: O=C(NCc1cccs1)c1cc(C(=O)c2c(Cl)cccc2Cl)c[nH]1
experimental_system: MKK7;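 note: KINOMEscan kinase panel screen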
unit_label: %
%Inh: 0
